Taken from patent US20130344070A1.

# System Name: human CCR2 (CC-Chemokine Receptor 2) (human, UniProt P41597 1-374)
# Sequence (P41597 whole entry): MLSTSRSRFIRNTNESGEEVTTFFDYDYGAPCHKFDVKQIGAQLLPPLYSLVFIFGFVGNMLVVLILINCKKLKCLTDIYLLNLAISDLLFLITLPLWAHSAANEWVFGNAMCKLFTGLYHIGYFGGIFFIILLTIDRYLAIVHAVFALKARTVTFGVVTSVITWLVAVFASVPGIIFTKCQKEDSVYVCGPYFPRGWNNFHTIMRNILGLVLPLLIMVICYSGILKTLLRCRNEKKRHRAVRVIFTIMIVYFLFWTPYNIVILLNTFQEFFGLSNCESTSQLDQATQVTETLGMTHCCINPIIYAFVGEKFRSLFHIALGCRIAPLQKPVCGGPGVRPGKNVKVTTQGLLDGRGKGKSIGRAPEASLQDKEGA
# Experimental Protocol: cell-based or functional assay
Readout Label: IC50 in calcium flux assay using human THP-1 cells, ligand MCP-1 (2.5 nM)
Reply with a number, then the unit it belongs to.

Q) What does the data say about its IC50 in calcium flux assay using human THP-1 cells, ligand MCP-1 (2.5 nM)? Entry: 1B2 (antibody, human IgG1, V domains shown) VH: EVQLVESGAEVKKPGASVKVSCKASGYTFTGYYMNWVRQAPGQGLEWMGWINPNSGGTKYAQKFQGRVTMTSDTSINTAYMELSRLRYDDTAVYYCATGGFQHWGQGTLVTVSS VL: LPVLTQPPSVSKGLRQTATLTCTGNSNNVGNQGAAWLQQHQGQPPKLLSYRNHNRPSGVSERFSPSRSGDTSSLTITGLQPEDEADYYCLAWDSSLRAFVFGTGTKLTVL
A) 0.92 nM

Q) Query 1G11 (antibody, human IgG1, V domains shown) VH: EVQLVESGAEVKKPGASVKVSCKASGYIFTGYYIHWVRQAPGQGLEWMGWINPNNGVTKYAEKFQGRVTMTRDTSITTAYMDLSRLRSDDTAIYYCATGGFEYWGQGTLVTVSS VL: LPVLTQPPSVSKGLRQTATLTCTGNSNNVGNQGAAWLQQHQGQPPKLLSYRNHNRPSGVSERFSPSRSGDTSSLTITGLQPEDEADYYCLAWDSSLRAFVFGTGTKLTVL next
A) 0.75 nM

Q) Please do the same for D1-1/45H8L1 (antibody, V domains shown, also called D1H1/45H8L1; D1-1B) VH: QVQLVQSGAEVKKPGASVKVSCKASGYTFTGYYMHWVRQAPGQGLEWMGWINPNSGVTKYAQKFQGRVTMTRDTSTSTVYMELSSLRSEDTAVYYCATGGFGYWGEGTLVTVSS VL: QAVLTQPPSVSKGLRQTATLTCTGNSNNVGNQGAAWLQQHQGQPPKLLSYRNHNRPSGVSERFSPSRSGDTSSLTITGLQPEDEADYYCLAWDSSLRAFVFGTGTKLTVL as well.
A) 0.37 nM

Q) Can you handle D1 (antibody, human IgG1, V domains shown, also called CCR2 D1 IgG; anti-CCR2 D1 antibody) VH: EVQLVQSGAEVKKPGASVKVSCKASGYTFTGYHMHWVRQAPGQGLEWMGWINPNSGVTKYAQKFQGRVTMTRDTSINTAYMELSRLRFDDTDVYYCATGGFGYWGEGTLVTVSS VL: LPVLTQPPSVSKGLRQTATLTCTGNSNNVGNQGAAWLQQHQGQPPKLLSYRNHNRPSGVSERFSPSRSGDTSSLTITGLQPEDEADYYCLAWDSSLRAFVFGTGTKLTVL next?
A) 0.18 nM
